# targetOfAssay: T1, ZFP SBS#1116 (synthetic)
# T1 chain: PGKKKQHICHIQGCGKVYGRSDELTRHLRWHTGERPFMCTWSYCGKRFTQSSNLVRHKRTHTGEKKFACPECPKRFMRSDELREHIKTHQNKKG
# assayRemarks: EMSA
# conditionLabel: tags: MBP fusion
readoutLabel: Kd (nM)
Quick note: give the figure in nM, leave out the unit.

Query: Which measured Kd value corresponds to CCGGAAGCG (dsDNA) DNA 1: CCGGAAGCG DNA 2: CGCTTCCGG ?
Result: 12.3
